target or test system: NAD(P)H dehydrogenase [quinone] 1 (Mus musculus)
assay summary: Induction of quinone reductase activity in mouse Hepa1c1c7 cells at 10 uM incubated for 24 hrs by MTT based assay
Assay type: cell-based
setup conditions: filed as activator
fold change (FC) overview

- compound: "C/C=C/C=C/C/C=C\\c1ccccc1/C=C/C(=O)NC(C)C(=O)N[C@@H]1COC(=O)[C@H]([C@H](C)C(=O)O)NC(=O)[C@H](CNC(=O)C(N)C(C)C)NC(=O)[C@H](C(C)C)NC(=O)[C@@H](CC(C)C)NC1=O (some centres undefined)"
  fold change (FC): 2.6
- compound: "CC(C)C/C=C/C=C/c1ccccc1/C=C/C(=O)N[C@H](C)C(=O)N[C@@H]1COC(=O)[C@H]([C@H](C)C(=O)O)NC(=O)[C@H](CNC(=O)[C@@H](N)C(C)C)NC(=O)[C@H](C(C)C)NC(=O)[C@@H](CC(C)C)NC1=O"
  fold change (FC): 2.3
- compound: "C/C=C/C=C/C=C/c1ccccc1/C=C/C(=O)NC(C)C(=O)N[C@@H]1COC(=O)[C@H]([C@H](C)C(=O)O)NC(=O)[C@H](CNC(=O)C(N)C(C)C)NC(=O)[C@H](C(C)C)NC(=O)[C@@H](CC(C)C)NC1=O (some centres undefined)"
  fold change (FC): 2.1
- compound: "CC(C)/C=C/C/C=C\\c1ccccc1/C=C/C(=O)N[C@H](C)C(=O)N[C@@H]1COC(=O)[C@H]([C@H](C)C(=O)O)NC(=O)[C@H](CNC(=O)[C@@H](N)C(C)C)NC(=O)[C@H](C(C)C)NC(=O)[C@@H](CC(C)C)NC1=O"
  fold change (FC): 2.4
